# credit: PubChem BioAssay

Recorded composite z-score by entry
- TEST_DETAILS: small-molecule microarray binders of probe aWnt5a, primary screen, biochemical, biotinylated probe, 635/667 nm fluorescence (AID 1113);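 note: score merges 667 nm fluorescence intensity with signal-to-noise per printed feature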
- CONDITION_NOTES: higher = more signal
ENDPOINT_LABEL: composite z-score

[[record]]
given_smiles = "NC(N)=NCc1cn(CCc2c[nH]c3ccccc23)nn1"
endpoint_label = "composite z-score"
reported = -0.114

[[record]]
given_smiles = "COc1ccc([Si](C)(C)[C@H]2[C@H](CC(=O)N3Cc4ccccc4C[C@H]3CO)O[C@@]3(C(=O)N(Cc4cccc(N5CCCCC5=O)c4)c4ccccc43)[C@@H]2C)cc1"
endpoint_label = "composite z-score"
reported = -0.043

[[record]]
given_smiles = "O=C1O[C@@H](c2ccccc2)[C@@H](c2ccccc2)N2[C@@H](c3ccc(O)cc3)[C@]3(C(=O)Nc4ccc(C#CCCO)cc43)[C@@H](C(=O)NC[C@H](O)c3ccccc3)[C@H]12"
endpoint_label = "composite z-score"
reported = -0.243

[[record]]
given_smiles = "CC(C)(C)OC(=O)CC[C@]1(C(=O)NCCN2CCOCC2)N=C(c2ccc(OCCCO)cc2)O[C@H]1c1ccccc1N=[N+]=[N-]"
endpoint_label = "composite z-score"
reported = 0.0229

[[record]]
given_smiles = "C=C(COC)/C(=C/C[C@@H](OC(=O)c1ccncc1)c1ccc(OCCO)cc1)c1cnc2ccccc2c1"
endpoint_label = "composite z-score"
reported = 0.0151

[[record]]
given_smiles = "CN(C)C(=O)[C@]1(CCC(=O)OC(C)(C)C)N=C(c2ccc(OCCCO)cc2)O[C@@H]1c1ccccc1"
endpoint_label = "composite z-score"
reported = 0.14

[[record]]
given_smiles = "COc1ccccc1CN1C(=O)c2ccccc2[C@@H](C(=O)NC(C)C)[C@@H]1c1ccc(CO)cc1"
endpoint_label = "composite z-score"
reported = 0.236


###

Recorded composite z-score by entry
- ASSAY_TARGET: Carbonic anhydrase 2 (Homo sapiens) (UniProt P00918)
- TEST_DETAILS: CAII small-molecule binders, profiling panel, biochemical, small-molecule microarray, Alexa647-labelled CAII (AID 1122)
- CONDITION_NOTES: CAII-A647 binding fluorescence, higher = more signal
ENDPOINT_LABEL: composite z-score

[[record]]
compound = "COC(=O)[C@@]1(Cc2ccccc2)[C@H]2c3cc(C(=O)N4CCCC4)[nH]c3C[C@H]2CN1C(=O)c1ccccc1"
assay_target = "Carbonic anhydrase 2 (Homo sapiens) (UniProt P00918)"
reported = 0.722

[[record]]
compound = "COCCCNC(=O)[C@]1(Cc2ccccc2N=[N+]=[N-])N=C(c2ccc(OCCCO)cc2)O[C@@H]1c1ccccc1N=[N+]=[N-]"
assay_target = "Carbonic anhydrase 2 (Homo sapiens) (UniProt P00918)"
reported = 0.666

[[record]]
compound = "CCOC(=O)C[C@H]1[C@H](OC(=O)c2ccc(C(=O)c3ccccc3)cc2)[C@@H](NC(=O)c2ccc3ccccc3c2)c2cc(OCCCO)ccc2N1C(=O)c1ccccc1"
assay_target = "Carbonic anhydrase 2 (Homo sapiens) (UniProt P00918)"
reported = 0.197

[[record]]
compound = "CO[C@H]1O[C@H](CO)[C@@H](OC(=O)c2ccc(Br)cc2)[C@@H]2OC(=O)[C@@H](Cc3ccc4ccccc4c3)C/C=C/C[C@H](Cc3ccc4ccccc4c3)C(=O)O[C@@H]12"
assay_target = "Carbonic anhydrase 2 (Homo sapiens) (UniProt P00918)"
reported = 0.63

[[record]]
compound = "CC(=O)NCCCC[C@@H]1NC(=O)[C@@H]2C[C@H](C(=O)O)[C@H](c3ccc(O)cc3)N2C1=O"
assay_target = "Carbonic anhydrase 2 (Homo sapiens) (UniProt P00918)"
reported = 0.658

[[record]]
compound = "COC(=O)[C@@]1(Cc2ccc(OC)cc2)[C@H]2c3cc(C(=O)N(C)C)n(Cc4ccccc4)c3C[C@H]2CN1C(=O)c1ccccc1"
assay_target = "Carbonic anhydrase 2 (Homo sapiens) (UniProt P00918)"
reported = 0.366

[[record]]
compound = "C[C@@H]1ON(c2ccc(C(=O)OC(C)(C)C)cc2)[C@H](c2ccc(Br)cc2)[C@H]1C(=O)N1C(=O)OC[C@H]1Cc1ccccc1"
assay_target = "Carbonic anhydrase 2 (Homo sapiens) (UniProt P00918)"
reported = 0.235

[[record]]
compound = "COCCOC(=O)N1C(=O)[C@@]2(c3ccccc31)[C@H](C(=O)N1CCN(c3ncccn3)CC1)[C@H]1C(=O)O[C@H](c3ccccc3)[C@H](c3ccccc3)N1[C@@H]2c1ccc(OCCO)cc1"
assay_target = "Carbonic anhydrase 2 (Homo sapiens) (UniProt P00918)"
reported = 0.512

[[record]]
compound = "CCOc1cc(C(O)C2C=CC3C(=O)N(C)C(=O)C3N2N2CCCCC2)ccc1O (stereo not drawn)"
assay_target = "Carbonic anhydrase 2 (Homo sapiens) (UniProt P00918)"
reported = 0.709

[[record]]
compound = "O=C1C[C@@](C(=O)NCC(F)(F)F)(c2ccc([N+](=O)[O-])cc2)[C@@H](c2ccc(CO)cc2)N1C1CCCCC1"
assay_target = "Carbonic anhydrase 2 (Homo sapiens) (UniProt P00918)"
reported = 0.685

[[record]]
compound = "COc1ccc([Si](C)(C)[C@@H]2[C@@H](CCn3cc([C@H](O)c4ccccc4)nn3)O[C@]3(C(=O)N(Cc4ccc(N5CCOC5=O)cc4)c4ccccc43)[C@H]2C)cc1"
assay_target = "Carbonic anhydrase 2 (Homo sapiens) (UniProt P00918)"
reported = 0.0584

[[record]]
compound = "Cc1ccc(S[C@]2(C(=O)NCC(F)(F)F)CC(=O)N(Cc3ccccc3)[C@@H]2c2ccc(CO)cc2)cc1"
assay_target = "Carbonic anhydrase 2 (Homo sapiens) (UniProt P00918)"
reported = 0.699

[[record]]
compound = "COCCOC(=O)N1C(=O)[C@@]2(c3cc(C#CC4=CCCCC4)ccc31)[C@H](c1ccc(O)cc1)N1[C@H](c3ccccc3)[C@H](c3ccccc3)OC(=O)[C@H]1[C@@H]2C(=O)Nc1nc2ccccc2s1"
assay_target = "Carbonic anhydrase 2 (Homo sapiens) (UniProt P00918)"
reported = 0.556


###

- TEST_DETAILS: small-molecule microarray binders of probe aNog, primary screen, biochemical, biotinylated probe, 635/667 nm fluorescence (AID 1115);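 note: probe is biotinylated aNog protein used at 0.15 µg/mL for 1 h at 4 C; z-score combines 667 nm fluorescence of each spot with its signal to noise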
- CONDITION_NOTES: higher = more signal
// map composite z-score onto a label; ranges LOW: < -0.3; MEDIUM: ≥ -0.3 and < -0.1; HIGH: ≥ -0.1

[[record]]
compound = "COC(=O)[C@@]1(Cc2ccc(F)cc2)[C@H]2c3cc(C(=O)N4CCCC4)n(CCF)c3C[C@H]2CN1C(=O)c1ccccc1"
assigned_label = "HIGH"

[[record]]
compound = "C=CCN1C(=O)[C@@]2(CCC(=O)OC(C)(C)C)N=C(c3ccc(OCCCO)cc3)O[C@H]2c2ccccc21"
assigned_label = "MEDIUM"

[[record]]
compound = "CCCC[C@@H]1C[C@H]1[C@@H](NC(=O)c1cccnc1)c1ccc(-c2ccccc2)cc1"
assigned_label = "LOW"

[[record]]
compound = "CC1CC/C=C\\[C@H]2OC34C=CCN(C(C)C)C(=O)[C@H]3N(CCCCCO)C(=O)[C@@H]4C2C(=O)O1 (stereo partly drawn)"
assigned_label = "HIGH"

[[record]]
compound = "C=CCC(OC(C)=O)[C@@H]1[C@@H](N(Cc2cc3ccccc3o2)C(=O)Cc2ccc(F)cc2)c2cc(OCCCO)ccc2N1C(=O)c1ccc2ccccc2n1 (stereo partly drawn)"
assigned_label = "HIGH"

[[record]]
compound = "CC1CC/C=C\\[C@H]2OC34C=CCN(c5ccc6ccccc6c5)C(=O)[C@H]3N(C(CO)C(C)C)C(=O)[C@@H]4C2C(=O)O1 (stereo partly drawn)"
assigned_label = "MEDIUM"

[[record]]
compound = "COc1cc(CO)cc(I)c1O[C@H]1C=C(C(=O)NCCO)C[C@@H](N(CC2CCCCC2)C(=O)c2ccc(C(F)(F)F)cc2)[C@@H]1O"
assigned_label = "MEDIUM"

[[record]]
compound = "C[N+](C)(C)CCCC[C@@H]1NC(=O)[C@@H]2C[C@H](C(=O)O)[C@H](c3ccc(O)cc3)N2C1=O"
assigned_label = "LOW"

[[record]]
compound = "COCCOC(=O)N1C(=O)[C@@]2(c3cc(C#CC4=CCCCC4)ccc31)[C@H](c1ccccc1OCCO)N1[C@H](c3ccccc3)[C@H](c3ccccc3)OC(=O)[C@H]1[C@@H]2C(=O)N1CCc2cc(OC)c(OC)cc2C1"
assigned_label = "HIGH"

[[record]]
compound = "O=C1O[C@@H](c2ccccc2)[C@@H](c2ccccc2)N2[C@@H](c3ccccc3OCCO)[C@]3(C(=O)Nc4ccc(C#CCCO)cc43)[C@@H](C(=O)Nc3nc4ccccc4s3)[C@H]12"
assigned_label = "LOW"

[[record]]
compound = "C=CCC(OC(C)=O)[C@@H]1[C@@H](N(Cc2ccc(-c3ccccc3)cc2)C(=O)c2cccc3ccccc23)c2cc(OCCCO)ccc2N1C(=O)Cc1ccc2ccccc2c1 (stereo partly drawn)"
assigned_label = "MEDIUM"

